target: NADPH oxidase 4 (Homo sapiens) (UniProt Q9NPH5); experiment: NOX4-dependent H2O2 signal modulators, primary screen, NOX inhibitor project, cell-based, HEK293-NOX4, tetracycline-induced, Amplex Red fluorescence (AID 1160); details: 45 min, higher = more signal, called active from +8 up or from −8 down
Sequence (Q9NPH5 whole entry, looked up): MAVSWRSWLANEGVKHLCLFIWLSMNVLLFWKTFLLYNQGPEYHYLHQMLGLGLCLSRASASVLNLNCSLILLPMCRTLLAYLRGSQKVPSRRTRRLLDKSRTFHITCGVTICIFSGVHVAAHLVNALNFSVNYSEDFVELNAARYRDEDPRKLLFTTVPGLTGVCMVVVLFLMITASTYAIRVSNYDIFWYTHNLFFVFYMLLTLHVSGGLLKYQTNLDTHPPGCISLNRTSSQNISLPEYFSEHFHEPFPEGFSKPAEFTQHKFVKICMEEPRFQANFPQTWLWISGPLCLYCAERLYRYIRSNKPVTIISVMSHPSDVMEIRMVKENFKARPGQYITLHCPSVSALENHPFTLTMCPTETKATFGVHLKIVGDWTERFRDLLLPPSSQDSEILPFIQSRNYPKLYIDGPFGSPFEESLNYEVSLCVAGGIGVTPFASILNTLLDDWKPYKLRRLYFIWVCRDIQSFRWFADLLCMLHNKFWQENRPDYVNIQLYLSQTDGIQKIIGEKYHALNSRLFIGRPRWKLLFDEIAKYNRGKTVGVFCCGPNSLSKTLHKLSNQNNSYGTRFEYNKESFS
readoutLabel: z-score
Give bare numbers.

O=C1[C@H]2[C@H]3[C@H](O)[C@H](O)CC(=NO[C@@H]4O[C@H](CO)[C@@H](O)[C@H](O)[C@H]4O)[C@@H]3CC[C@H]2C(=O)N1C1CCCCC1: 0.607
C#CCCCON=C1C[C@@H](O)[C@@H](O)[C@@H]2[C@@H]3C(=O)N(C[C@@H]4CCCO4)C(=O)[C@@H]3CC[C@H]12: -1.68
CSCC[C@@H]1NC(=O)CC=C[C@@H](C)COC(=O)[C@H](C)COC1=O: 0.384
CC(C)=CCCC(C)=CCON=C1[C@H]2CCn3c(=O)n(-c4ccccc4)c(=O)n3[C@H]2[C@H](O)[C@@H]2O[C@H]12: 0.577

# lookup: z-score of CC(=O)OC[C@H]1O[C@H](CC=NOC(C)CN2CCCc3nc(C)c(C)cc32)C=C[C@@H]1OC(C)=O (stereo not given in full)
-2.2

====

assay: adipocyte viability effects, profiling panel, cell-based, 3T3-L1 adipocytes, calcein-AM fluorescence, 48 h, basal (AID 1163); conditions: 3T3-L1 adipocytes viability, higher = more signal; note: test concentration not given here
Values of z-score strictly less than -0.2 map to t, and values of at least -0.2 map to f.

Solved entries:
C#CCCCON=C1C[C@@H](O)[C@@H](O)[C@@H]2[C@@H]3C(=O)N(C[C@@H]4CCCO4)C(=O)[C@@H]3CC[C@H]12: t
COC(=O)[C@@H]1CC[C@H](C)[C@@H](c2ccc(Br)cc2)N1: f
COC(=O)[C@H](C)NC(=O)CCC1CC(OC(=O)NCc2cccc3ccccc23)CC2(CCCC(COC(=O)NCCc3ccccc3OC)O2)O1 (some centres undefined): t

is_below(z-score, -0.2) for "CC(=O)OC[C@H]1O[C@H](CCON=C(C)CCN2CCCc3nc(C)c(C)cc32)C=C[C@@H]1OC(C)=O" ?
t

is_below(z-score, -0.2) for CC(=O)OC[C@H]1O[C@H](CC=NOC(C)CN2CCCCc3nc(C)c(C)cc32)C=C[C@@H]1OC(C)=O (some centres undefined) ?
t

is_below(z-score, -0.2) for CCOC(=O)[C@H](CC(C)C)NC(=O)CCC1CC(OC(=O)NCc2ccc3c(c2)OCO3)CC2(CCCC(COC(=O)NCCC(C)C)O2)O1 (some centres undefined) ?
f

is_below(z-score, -0.2) for "CC(C)[C@H](NC(=O)OC(C)(C)C)[C@@H](O)CC(=O)C(C)(C)C" ?
t

is_below(z-score, -0.2) for "CCOC(=O)CCN1C(=O)[C@H]2[C@H]3[C@H](O)[C@H](O)CC(=O)[C@@H]3CC[C@H]2C1=O" ?
f

is_below(z-score, -0.2) for "COc1ccc(COC(=O)NN=C2C[C@@H](O)[C@@H](O)[C@@H]3[C@@H]4C(=O)N(Cc5ccccc5)C(=O)[C@@H]4CC[C@@H]23)cc1" ?
t

is_below(z-score, -0.2) for "COc1ccc(O[C@H]2C=C[C@@H](c3ccccc3)O[C@@H]2CON=C(C)CCN2CCCc3nc(C)c(C)cc32)cc1" ?
t

is_below(z-score, -0.2) for "COc1ccc(O[C@H]2C=C[C@@H](c3ccccc3)O[C@@H]2CO)cc1" ?
f

is_below(z-score, -0.2) for "CC(=O)OC[C@H]1O[C@@H](ON=C(C)CCC(=O)OC[C@H]2O[C@H](C#Cc3ccccc3)C=C[C@@H]2Oc2ccc(C)cc2)[C@H](OC(C)=O)[C@@H](OC(C)=O)[C@@H]1OC(C)=O" ?
f

is_below(z-score, -0.2) for "COC(=O)CC=C[C@@H](C)[C@@H](C=NOC[C@@H](C)[C@H](OCc1ccccc1)C(C)C)NS(=O)(=O)c1ccc(C)cc1" ?
f

is_below(z-score, -0.2) for "CCCNC(=O)OC[C@H]1O[C@H](CCON=C[C@@H](C)[C@H](OCc2ccccc2)C(C)C)C=C[C@@H]1Oc1ccc(OC)cc1" ?
f

is_below(z-score, -0.2) for "O=C1C=C[C@@H](O)[C@@H]2[C@@H]3C(=O)N(c4cccc(Oc5ccccc5)c4)C(=O)[C@@H]3CC[C@@H]12" ?
f

is_below(z-score, -0.2) for "C=CC[C@@H]1C=C[C@H](Oc2ccc(C)cc2)[C@@H](COC(=O)NCc2cccc3ccccc23)O1" ?
f

is_below(z-score, -0.2) for "CCN1C(=O)[C@H]2[C@H]3[C@H](O)[C@H](O)CC(=NO[C@@H]4O[C@H](COC(C)=O)[C@@H](OC(C)=O)[C@H](OC(C)=O)[C@H]4OC(C)=O)[C@@H]3CC[C@H]2C1=O" ?
t

is_below(z-score, -0.2) for "CC(C)[C@@H](OCc1ccccc1)[C@H](C)CON=C1[C@H]2CCn3c(=O)n(-c4ccccc4)c(=O)n3[C@H]2[C@H](O)[C@@H]2O[C@H]12" ?
f

is_below(z-score, -0.2) for CCOC(=O)[C@H](Cc1ccccc1)NC(=O)CCC1CC(OC(=O)NCc2cccc3ccccc23)CC2(CCCC(COC(=O)NCc3ccc4c(c3)OCO4)O2)O1 (some centres undefined) ?
f

is_below(z-score, -0.2) for "COc1ccc(OC[C@@H](CO)OC)cc1" ?
f

is_below(z-score, -0.2) for "O=C1C=C[C@@H](O)[C@@H]2[C@@H]3C(=O)N(Cc4ccc5c(c4)OCO5)C(=O)[C@@H]3CC[C@@H]12" ?
f

is_below(z-score, -0.2) for "COC(=O)[C@H](C)NC(=O)CC=C[C@@H](C)[C@@H]1C=C[C@H](O)[C@@H](CO)O1" ?
t

is_below(z-score, -0.2) for CCOC(=O)[C@H](Cc1ccccc1)NC(=O)CCC1CC(OC(=O)NCc2ccc3c(c2)OCO3)CC2(CCCC(COC(=O)NCCCN3CCCC3=O)O2)O1 (some centres undefined) ?
f

is_below(z-score, -0.2) for "CCN1C(=O)[C@H]2[C@H]3[C@H](O)[C@H](O)CC(=NOCC[C@@H]4C=C[C@H](OC(C)=O)[C@@H](COC(C)=O)O4)[C@@H]3CC[C@H]2C1=O" ?
t

====

Give measured composite z-score for each item. Keep answers brief.
test system: Sam68 (KHDRBS1); assay: Sam68 small-molecule binders, primary screen, biochemical, small-molecule microarray, 635 nm fluorescence (AID 1125); conditions: small-molecule microarray binding, higher = more signal;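 note: score merges 667 nm channel intensity with signal to noise over triplicate slides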
Numbers only.

C[C@H]1CC[C@@H](C(=O)O)N[C@@H]1c1cccc(N2CCCC2=O)c1: 0.0706
COC(=O)CC=C[C@@H](C)[C@@H](C=NOC(C)CN1CCCCc2nc(C)c(C)cc21)NS(=O)(=O)c1ccc(C)cc1 (some centres undefined): 0.0692

Okay, here is my list. What is composite z-score for each of these?
1. CCOC(=O)[C@H](CC(C)C)NC(=O)CCC1CC(OC(=O)NCCc2ccc(F)cc2)CC2(CCCC(COC(=O)NCc3cccc4ccccc34)O2)O1 (some centres undefined)
2. CC(C)(C)N1C(=O)[C@H]2[C@H]3[C@H](O)[C@H](O)CC(=NNC(=O)OCc4ccccc4)[C@@H]3CC[C@H]2C1=O

[0.695, 0.692]

====

target: Left-right determination factor 2 (Homo sapiens) (UniProt O00292); test: LEFTY2 binders on small-molecule microarrays, primary screen, biochemical, small-molecule microarray, 635 nm fluorescence scan (AID 1110); conditions: LEFTY2 binding, higher = more signal
Sequence (O00292 whole entry, looked up): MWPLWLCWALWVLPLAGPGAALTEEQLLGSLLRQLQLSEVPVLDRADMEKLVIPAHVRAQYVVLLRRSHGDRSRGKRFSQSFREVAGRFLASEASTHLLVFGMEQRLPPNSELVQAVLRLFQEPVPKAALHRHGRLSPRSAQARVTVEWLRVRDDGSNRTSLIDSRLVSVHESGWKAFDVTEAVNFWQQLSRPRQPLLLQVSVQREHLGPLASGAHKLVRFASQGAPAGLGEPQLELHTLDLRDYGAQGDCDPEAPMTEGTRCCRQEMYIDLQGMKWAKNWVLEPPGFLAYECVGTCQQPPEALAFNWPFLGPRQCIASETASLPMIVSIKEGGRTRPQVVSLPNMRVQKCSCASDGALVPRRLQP
# cutoff 0.4 applies to composite z-score; >= gives true, < gives false

Solved entries:
CC(=O)OC[C@H]1O[C@H](CCON=C(C)CCN2CCCc3nc(C)c(C)cc32)C=C[C@@H]1OC(C)=O: true
CCOC(=O)[C@H](Cc1ccccc1)NC(=O)CCC1CC(OC(=O)NCc2cccc3ccccc23)CC2(CCCC(COC(=O)NCC3CCCCC3)O2)O1 (stereo not given in full): true
O=C1C[C@@H](O)[C@@H](O)[C@@H]2[C@@H]3C(=O)N(c4ccc(F)cc4F)C(=O)[C@@H]3CC[C@H]12: true

Could you verify whether the entry "C=CC[C@@H]1C=C[C@H](ON=C(C)CCN2CCCc3nc(C)c(C)cc32)[C@@H](CO)O1" shows composite z-score of no less than 0.4?
true

Could you verify whether the entry CCOC(=O)[C@H](CC(C)C)NC(=O)CCC1CC(OC(=O)NCc2ccc3c(c2)OCO3)CC2(CCCC(COC(=O)NCCc3ccccc3OC)O2)O1 (stereo not given in full) shows composite z-score of no less than 0.4?
true

Could you verify whether the entry "CON=C[C@@H](OC)[C@H](C)C=CCC(=O)OC" shows composite z-score of no less than 0.4?
false

Could you verify whether the entry "Cc1ccc(S(=O)(=O)N[C@@H]2COC(=O)CC=C[C@@H](C)[C@H](NS(=O)(=O)c3ccc(C)cc3)COC(=O)[C@H](C)NC(=O)CC=C[C@H]2C)cc1" shows composite z-score of no less than 0.4?
true

Could you verify whether the entry "CC(CCC(=O)OC[C@H]1O[C@H](C#Cc2ccccc2)C=C[C@@H]1Oc1ccc(C)cc1)=NO[C@H](C)c1cn([C@@H]2COC[C@H]2O)nn1" shows composite z-score of no less than 0.4?
true

Could you verify whether the entry "CO[C@@H]1COC(=O)[C@H](COCc2ccccc2)NC(=O)CC=C[C@@H](C)[C@H](OC)COC(=O)[C@@H](C)NC(=O)CC=C[C@H]1C" shows composite z-score of no less than 0.4?
true

Could you verify whether the entry "CCN1C(=O)[C@H]2[C@H]3[C@H](O)[C@H](O)CC(=NNC(=O)OCc4ccccc4)[C@@H]3CC[C@H]2C1=O" shows composite z-score of no less than 0.4?
false

Could you verify whether the entry "CO[C@H]1COC(=O)[C@H](C)COC(=O)[C@@H](OCc2ccccc2)C=C[C@@H]1C" shows composite z-score of no less than 0.4?
false

Could you verify whether the entry "C[C@@H](c1ccccc1)N1C(=O)[C@H]2[C@H]3[C@H](O)[C@H](O)CC(=NOCc4ccccc4)[C@@H]3CC[C@H]2C1=O" shows composite z-score of no less than 0.4?
false

Could you verify whether the entry "COC(=O)[C@H](C)NC(=O)CC=C[C@@H](C)[C@@H]1C=C[C@H](O)[C@@H](CO)O1" shows composite z-score of no less than 0.4?
true

Could you verify whether the entry "CCCNC(=O)OC[C@H]1O[C@H](CCON=C2c3cc(OC)ccc3O[C@H](c3cccc(OC)c3)[C@H]2O)C=C[C@@H]1Oc1ccc(OC)cc1" shows composite z-score of no less than 0.4?
false

Could you verify whether the entry "CCOC(=O)CCN1C(=O)[C@H]2[C@H]3[C@H](O)[C@H](O)CC(=NOCC=C(C)CCC=C(C)C)[C@H]3CC[C@H]2C1=O" shows composite z-score of no less than 0.4?
false

Each recorded value in this set is attributed to PubChem BioAssay.
